System: K-562 leukemia
assay_protocol: NCI-60 one-dose screen, 48 h
settings: 10 µM unless noted
Compounds without any hit were thinned out: in the full panel of roughly 83,000, 20% have a hit. Calls of active or inactive are those of the source. How the source made its calls: active means growth percent below 10; inactive means the rest.
# output must be one of YES = active, NO = inactive

## Task Short answer needed: outcome of this test for C#CC(=O)Nc1cccc(Nc2nc3c(c(NCc4ccccc4)n2)CCCC3)c1 ?
## Result YES

Next:
## Task Short answer needed: outcome of this test for COc1ccc(-c2nc(N/N=C/c3cccc(Br)c3)nc(N3CCOCC3)c2C#N)cc1 ?
## Result YES

## Task Short answer needed: outcome of this test for COc1cccc2c1C(=O)c1c(O)c3c(c(O)c1C2=O)C[C@@](O)(C(=O)CO)C[C@@H]3O[C@H]1C[C@H](N)[C@@H](O)[C@H](C)O1 ?
## Result YES

## Task Short answer needed: outcome of this test for Cn1c(COC(=O)NCCn2ccnc2)nc2c(N3CCOCC3)nc(-c3ccccc3)nc21 ?
## Result YES

###

Here, each record is paired with measured growth data.
System: OVCAR-4 ovarian
assay_protocol: NCI-60 one-dose screen, 48 h (100 = growth as untreated, 0 = no growth, -100 = all killed)
settings: 10 µM unless noted
The panel holds about 83,000 compounds, 20% with a hit somewhere; the sample as a whole holds those more often.
Hi! Could you send only the number? It should be in %, unit omitted.

// solved cases for growth follow
## Task Please look at this compound and report its growth: COc1ccc(/C=N/NC(=O)c2cccc3cc[nH]c23)cc1O
## Result 49.6

## Task Please look at this compound and report its growth: O=C(/C=C/c1ccc[nH]1)c1ccc(-n2ccc(C(F)(F)F)n2)cc1
## Result 97.7

## Task Please look at this compound and report its growth: COc1ccc(-c2nc3sccn3c2/C=C/C(=O)c2cc(OC)c(OC)c(OC)c2)cc1
## Result 54.7

## Task Please look at this compound and report its growth: Cc1c2c(cc[n+]1Cc1ccccc1)c1ccc(OCc3ccccc3)cc1n2Cc1ccccc1
## Result -3.79

## Task Please look at this compound and report its growth: O=c1[nH]c(=O)[nH]c(=S)[nH]1
## Result 109

Now, please, on to the next compound.
## Task Please look at this compound and report its growth: COc1ccc(/C(=C\c2ccccc2)C(=O)O)cc1OC
## Result 103

###

Test system: M14 melanoma
assay_protocol: NCI-60 one-dose screen, 48 h
settings: 10 µM unless noted
This is part of a sample that, as a whole, favours compounds with a hit. Of some 83,000 tested, about 20% had one in any assay. Activity calls are given as the source filed them. The calls were made as follows: active = growth percent below 10; inactive = the rest.
# output must be one of t for active, f for inactive

// known answers, use as guide
## Task Short answer needed: outcome of this test for COc1cc(-c2nc3occn3c2-c2ccnc(NCCNS(=O)(=O)c3ccc(Cl)cc3)n2)ccc1F ?
## Result f

## Task Short answer needed: outcome of this test for COc1ccc(Cn2nc(-c3cc(OC)c(OC)c(OC)c3)c3c2CCc2cnoc2-3)cc1OC ?
## Result f

## Task Short answer needed: outcome of this test for CCC(=O)c1ccc(O)c(OC)c1 ?
## Result f

## Task Short answer needed: outcome of this test for COc1ccc(OC)c(/C=C/[C@H]2O[C@@H](C)[C@H](O)[C@@H]2O)c1 ?
## Result f

## Task Short answer needed: outcome of this test for COc1cccc(CCC(=O)c2cc3c(N)c(C(=O)Nc4ccccc4)sc3nc2C)c1 ?
## Result f

## Task Short answer needed: outcome of this test for N#CSCC1CC(O)(c2ccccc2)C(c2ccccc2)C(c2ccc(F)cc2)O1 (stereo not given) ?
## Result t

Next:
## Task Short answer needed: outcome of this test for COC(=O)C(c1ccccc1)C(CC(=O)c1ccccc1)c1ccccc1 (stereo not given) ?
## Result f

## Task Short answer needed: outcome of this test for COC(=O)C1NC(=S)N(c2ccc(Cl)cc2)C1/C=C/c1ccccc1 (stereo not given) ?
## Result f

## Task Short answer needed: outcome of this test for COc1ccc(C(=O)c2cc3c(N)c(C(=O)Nc4cccc(OC)c4)sc3nc2C)cc1 ?
## Result f

## Task Short answer needed: outcome of this test for c1ccc(Cn2nc3c(c2-c2ccccc2)-c2oncc2CC3)cc1 ?
## Result f

###

Test system: ACHN renal
assay_protocol: NCI-60 one-dose screen, 48 h (100 = growth as untreated, 0 = no growth, -100 = all killed)
settings: 10 µM unless noted
This is part of a sample that, as a whole, favours compounds with a hit. Of some 83,000 tested, about 20% had one in any assay.
Mark 1 (yes) for reported growth of 70% or greater; mark 0 (no) for anything smaller.

## Task Hi, just wondering whether CCCCCCCCCCN=C(N)N=C(N)N shows growth of 70% or higher.
## Result 0 (no)

## Task Hi, just wondering whether Nc1c(Cl)cc([N+](=O)[O-])cc1Br shows growth of 70% or higher.
## Result 1 (yes)

## Task Hi, just wondering whether COc1cc(-c2nc3sccn3c2-c2ccnc(NCCNS(=O)(=O)c3ccc(F)cc3)n2)ccc1F shows growth of 70% or higher.
## Result 0 (no)

## Task Hi, just wondering whether O=C(CN1CCOCC1)Nc1ccc2ncnc(Nc3ccc(Oc4cccc(F)c4)c(Cl)c3)c2c1 shows growth of 70% or higher.
## Result 0 (no)

Next:
## Task Hi, just wondering whether CN1CCN(CCCNc2nccc(-c3c(-c4ccc(F)c(O)c4)nc4sccn34)n2)S1(=O)=O shows growth of 70% or higher.
## Result 1 (yes)

## Task Hi, just wondering whether O=C(Nc1nc2ccc(S(=O)(=O)Nc3ccc(C4(C(F)(F)F)CC4)cc3)cc2[nH]1)c1cnccn1 shows growth of 70% or higher.
## Result 0 (no)

## Task Hi, just wondering whether Cc1ccc(C(=O)Nc2ccccc2C(=O)N/N=C(\c2ccccc2)c2ccccn2)cc1 shows growth of 70% or higher.
## Result 0 (no)

## Task Hi, just wondering whether COc1ccc(C(O)c2cc3c(N)c(C(=O)Nc4cccc(OC)c4)sc3nc2C)cc1 (stereo not given) shows growth of 70% or higher.
## Result 0 (no)

## Task Hi, just wondering whether CCc1c(Nc2ccc(C)cc2)[nH]c(N)nc1=S shows growth of 70% or higher.
## Result 1 (yes)

###

Tested on: SF-295 CNS
assay_protocol: NCI-60 one-dose screen, 48 h (100 = growth as untreated, 0 = no growth, -100 = all killed)
settings: 10 µM unless noted
Compounds without any hit were thinned out: in the full panel of roughly 83,000, 20% have a hit.
growth vs 70%: less than gives true; not less than gives false.

// known answers, use as guide
## Task Hi there! Is growth for CN(C)c1ccc(-c2c(C#N)c(N)n3nc(N)c(C#N)c3c2C#N)cc1 below 70%, do you know?
## Result false

## Task Hi there! Is growth for COc1ccc(/C=C/c2n[nH]c3ccc(N4CCOC4=O)cc23)cc1 below 70%, do you know?
## Result true

## Task Hi there! Is growth for COc1ccc(C2=C(c3ccccc3)c3ccc(OC(C)=O)cc3OC2(C)C)cc1 below 70%, do you know?
## Result false

## Task Hi there! Is growth for CC(=O)O[C@]1(C(C)=O)CC[C@H]2[C@@H]3C=C(Cl)C4=CC(=O)CC[C@]4(C)[C@H]3CC[C@@]21C below 70%, do you know?
## Result false

Next:
## Task Hi there! Is growth for O=S(=O)(O)c1cc(O)c2c(N=Nc3ccc(Nc4ccccc4)c4c(S(=O)(=O)O)cccc34)cc(S(=O)(=O)O)cc2c1 below 70%, do you know?
## Result false

## Task Hi there! Is growth for COc1cc(C2CC(c3cccc(Nc4ccncc4)c3)=NN2c2ccccc2)cc(OC)c1OC (centres undefined) below 70%, do you know?
## Result true

## Task Hi there! Is growth for Cc1cc(NC(=O)c2cnc(N3CCN(CCOCCOCCOCCOCCC(=O)N[C@H](C(=O)N4C[C@H](O)C[C@H]4C(=O)N[C@@H](C)c4ccc(-c5scnc5C)cc4)C(C)(C)C)CC3)cn2)c2ncccc2c1 below 70%, do you know?
## Result true

## Task Hi there! Is growth for COc1ccc(/C=N/NC(=O)c2cccc3cc[nH]c23)cc1O below 70%, do you know?
## Result true

## Task Hi there! Is growth for ClCC1(Cn2cnc3c(Cl)nc(Cl)nc32)COC1 below 70%, do you know?
## Result false

## Task Hi there! Is growth for Cc1nccc2c3ccc(OCc4cn(-c5ccc(Cl)cc5)nn4)cc3n(CCCc3ccccc3)c12 below 70%, do you know?
## Result true

## Task Hi there! Is growth for COc1ccc(C2CC(c3cccc(Nc4ccncc4)c3)=NN2c2ccccc2)cc1 (centres undefined) below 70%, do you know?
## Result true

## Task Hi there! Is growth for c1ccc(N2N=C(c3cccc(Nc4ccncc4)c3)CC2c2ccc3c(c2)OCO3)cc1 (centres undefined) below 70%, do you know?
## Result true

## Task Hi there! Is growth for CC(=O)N1c2ccccc2NC2=C(C(=O)N(C)C2(C)C)C1C (centres undefined) below 70%, do you know?
## Result true
